The measurements presented in this section are drawn from PubChem BioAssay (NCI).

System: MDA-MB-231 breast
protocol-text: NCI-60 one-dose screen, 48 h (100 = growth as untreated, 0 = no growth, -100 = all killed)
stated-conditions: 10 µM unless noted
The panel holds about 83,000 compounds, 20% with a hit somewhere; the sample as a whole holds those more often. The source made the active and inactive calls. Rule for the calls: active = growth percent below 10; inactive = the rest.
Consider the following molecules; for each one, report its growth.

Could you tell me which growth is on file for Oc1cccc2ccc(-c3nnc(SCc4ccc(O)c5ncccc45)n3-c3ccccc3)nc12 ?
29.7% (inactive)

Request the reported growth associated with Cc1cc(C)n(C(=O)c2sc(=S)n(-c3ccccc3)c2N=Nc2c(N)n[nH]c2N)n1
89.2% (inactive)

May I ask what growth has been recorded for CN(C)CCNC(=O)c1ccc(-c2nc3ccc4[nH]ncc4c3c3c2COCC3)cc1 ?
-5.19% (active)

Look at this molecule and give its reported growth. COc1ccc(N2C(=O)c3cc(Cl)ccc3NC2SCc2ccccc2)cc1 (centres undefined)
85.1% (inactive)

Quick one: growth for O=C(CNc1nc(-c2cccc([N+](=O)[O-])c2)cs1)Nc1cccc([N+](=O)[O-])c1 ?
-28.8% (active)

Record request: growth value, item COc1cc(/C=C/C(=O)c2ccc(NC(=O)CSc3nnc(-c4ccc(-c5nc6ccc(Cl)cc6[nH]5)cc4)o3)cc2)cc(OC)c1OC
79.1% (inactive)

So what does the record say about growth for COc1ccc(CCOc2cc3c(cc2OC)CCN(C(=O)NCc2cocn2)C3c2ccc(C)cc2C)cc1 (centres undefined) ?
20.5% (inactive)

growth lookup needed for O=C1CCCC2=C1C(c1c[nH]c3ccc(Br)cc13)Cc1cc(Br)ccc1N2 (centres undefined) , thanks.
40% (inactive)

What measured growth goes with Nc1nc(-c2cccc([N+](=O)[O-])c2)c(N=Nc2ccc([N+](=O)[O-])cc2Cl)s1 ?
12.2% (inactive)

Name the reported growth value associated with the molecule CCNC(=O)N1CCc2cc(OC)c(OCCc3ccc(OC)cc3)cc2C1c1ccc([N+](=O)[O-])cc1C (centres undefined)
17.7% (inactive)

Which measured growth value corresponds to CC(C)(C)CC(C)(C)n1nnnc1C(Nc1nccs1)c1cc2cccc3ccc4cccc1c4c32 (centres undefined) ?
97.2% (inactive)

Name the recorded growth for CCc1ccc(SC2c3ccc(N(CC)CC)cc3Oc3nc(N)c(C#N)c(N)c32)cc1 (centres undefined) .
-83.8% (active)

I have this molecule here, COc1ccc2c(c1)c(CC(=O)[Se]CC(=O)O)c(C)n2C(=O)c1ccc(Cl)cc1 , and I need its recorded growth.
54.1% (inactive)

// returns reported growth for input CCCCCCCn1cc2c(N[C@H](C)c3ccccc3)ncnc2n1
98.4% (inactive)

// growth lookup, key: NS(=O)(=O)c1ccc(Nc2nc(N/N=C/c3ccc(Cl)cc3)nc(Nc3ccccc3)n2)cc1
86.7% (inactive)

Look up growth: CCO/C=N/C1=C(C#N)C(c2ccc(OC)cc2)c2sc3c(CC)cccc3c2O1 (centres undefined)
31.7% (inactive)

Which growth value belongs to COc1ccc(S(=O)(=O)NCCCNc2nccc(-c3cn(C(C)(C)C)nc3-c3ccc(Cl)c(OC)c3)n2)cc1 ?
43.8% (inactive)

# input molecule: COc1ccc(/C=C(/C)c2ccc3ccc(OC)cc3[o+]2)c(O)c1 ; wanted: its growth
72.7% (inactive)

Fill in the blank: the reported growth of C=C=COc1cccc(/C(N)=N/C(N)=N/c2nc3ccccc3s2)c1 is ____.
76.2% (inactive)
